All figures here come from ChEMBL document CHEMBL1136280.

- Tested on: Mus musculus
- PROTOCOL_TEXT: Mean survival time calculated for the mice which died during 28 day observation period at the dose of 48 mg/kg/day orally
- Format: functional
- CONDITION: route oral
RECORDED_METRIC: MST
Note: the reply should be a number with no unit written.

Example results:
{"columns": ["MOLECULE", "RECORDED_METRIC", "NUMERIC_RESULT"],
 "data": [
  ["C=C(CCC(O)c1ccc(-c2ccccc2)cc1)C1COC2(OO1)C1CC3CC(C1)CC2C3 (stereo not drawn)", "MST", 17.57],
  ["C=C(CCC(O)c1ccc(-c2ccccc2)cc1)C1COC2(CCCCC2)OO1 (stereo not drawn)", "MST", 11.2],
  ["C[C@@H]1CC[C@H]2[C@@H](C)C(=O)O[C@@H]3O[C@@]4(C)CC[C@@H]1[C@]32OO4", "MST", 16],
  ["CCN(CC)CCCC(C)Nc1ccnc2cc(Cl)ccc12 (stereo not drawn)", "MST", 17.6],
  ["C=C(CCC(O)c1cccc2ccccc12)C1COC2(OO1)C1CC3CC(C1)CC2C3 (stereo not drawn)", "MST", 15.57]
]}

In: Specify MST for C=C(CCC(O)c1ccccc1)C1COC2(OO1)C1CC3CC(C1)CC2C3 (stereo not drawn) , system Mus musculus.
Out: 9

In: Specify MST for C=C(CCC(O)c1ccc(-c2ccccc2)cc1)C1COC2(CCCC2)OO1 (stereo not drawn) , system Mus musculus.
Out: 12

In: Specify MST for C=C(CCC(O)c1ccc(Cl)cc1)C1COC2(OO1)C1CC3CC(C1)CC2C3 (stereo not drawn) , system Mus musculus.
Out: 10.2
